# System: pERK in PSN1 cells
# testProtocol: Inhibition of KRas phosphorylation of ERK (Cisbio HTRF pERK assay)
# conditionContext: Homo sapiens, PSN1, 3 h, read-out: Inhibition (HTRF IC50) of KRas-mediated Phosphorylation of ERK, PSN1
pIC50: −log10 of the molar value.
propertyLabel: pIC50

Quick one: pIC50 of CCc1c(F)ccc2cc(O)cc(-c3ncc4c(N5CC(c6ccncc6)C5)nc(OC[C@@]56CCCN5C[C@H](F)C6)nc4c3F)c12 ? ≤ 5.00

Now consider CCc1c(F)ccc2cc(O)cc(-c3ncc4c(N5C[C@H](O)CC[C@@H]5C)nc(OC[C@@]56CCCN5C[C@H](F)C6)nc4c3F)c12 and answer again. ≤ 5.00

Let us now turn to CCc1c(F)ccc2cc(O)cc(-c3ncc4c(N5C[C@H](O)CC[C@H]5C)nc(OC[C@@]56CCCN5C[C@H](F)C6)nc4c3F)c12 5.16

Cool, now CCc1c(F)ccc2cc(O)cc(-c3ncc4c(N5CCN6C(=O)NCC6C5)nc(OC[C@@]56CCCN5C[C@H](F)C6)nc4c3F)c12 (stereo partly drawn) ≤ 5.00

Lookup CCc1c(F)ccc2cc(O)cc(-c3ncc4c(N5CCCC6(C5)C[S+]([O-])C6)nc(OC[C@@]56CCCN5C[C@H](F)C6)nc4c3F)c12 (stereo partly drawn) ≤ 5.00

Also, CCc1c(F)ccc2cc(O)cc(-c3ncc4c(N5CC(O)CC(F)(F)C5)nc(OC[C@@]56CCCN5C[C@H](F)C6)nc4c3F)c12 (stereo partly drawn) please. 5.30

---

# targetSystem: KRas G13D (Homo sapiens, UniProt P01116, G13D)
# Construct: Biotinylated KRas (corresponding to amino acids 1-169, produced at Accelegan Inc.); biotin (biotinylated); purchased Accelegan Inc
# Sequence (P01116 1-169 isoform P01116-2 G13D): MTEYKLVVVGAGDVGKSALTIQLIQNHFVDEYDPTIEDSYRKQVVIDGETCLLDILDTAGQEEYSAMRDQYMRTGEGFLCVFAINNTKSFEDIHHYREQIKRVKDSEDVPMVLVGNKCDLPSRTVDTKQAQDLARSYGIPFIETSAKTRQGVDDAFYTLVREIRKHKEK
# testProtocol: KRas binding assay (TR-FRET displacement);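 note: One-hour room temperature incubation before TR-FRET reading, IC50 from a four-parameter curve fit to percent-of-control data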
propertyLabel: IC50 (nM)

# count of solved cases: 6
# compound, unitOfMeasurement, IC50
rows = [
    ("Fc1c(-c2cccc3cccc(F)c23)ncc2c(NCCCn3ccnn3)nc(OCC34CCCN3CCC4)nc12", "nM", 8810),
    ("OCC1CN(c2nc(OCC34CCCN3CCC4)nc3c(F)c(-c4cccc5cccc(F)c45)ncc23)CCC1O (stereo not drawn)", "nM", 5680),
    ("O=C1CC(CNc2nc(OCC34CCCN3CCC4)nc3c(F)c(-c4cccc5cccc(F)c45)ncc23)C(=O)N1 (stereo not drawn)", "nM", 2460),
    ("Fc1c(-c2cccc3cccc(F)c23)ncc2c(NCCc3c[nH]c4ncccc34)nc(OCC34CCCN3CCC4)nc12", "nM", 10100),
    ("Fc1c(-c2cccc3cccc(F)c23)ncc2c(NCc3ccc4[nH]cnc4c3)nc(OCC34CCCN3CCC4)nc12", "nM", 6310),
    ("CN(C)C(=O)c1cc2n(n1)CCCN(c1nc(OCC34CCCN3CCC4)nc3c(F)c(-c4cccc5cccc(F)c45)ncc13)C2", "nM", 1170),
]

(1) C#Cc1c(F)ccc2cccc(-c3ncc4c(N5CCC[C@@](C)(O)C5)nc(OC[C@@]56CCCN5C[C@H](F)C6)nc4c3F)c12
(2) Fc1c(-c2cccc3cccc(F)c23)ncc2c(N3CCCC4(CCC4)C3)nc(OCC34CCCN3CCC4)nc12
Looking at recorded values for IC50, does 1 or 2 come in lower? Please identify the chosen entry by its label. 1

(I) O=c1cc(CNc2nc(OCC34CCCN3CCC4)nc3c(F)c(-c4cccc5cccc(F)c45)ncc23)[nH][nH]1
(II) CN(C)CC1(COc2nc(N3CCCC(C)(O)C3)c3cnc(-c4cccc5cccc(F)c45)c(F)c3n2)CC1 (stereo not drawn)
In the pair I and II , the larger recorded IC50 belongs to which? Let me know the label of the one you choose. I
(I: 61500 nM, II: 3800 nM)

(a) NC(=O)NC1CCN(c2nc(OCC34CCCN3CCC4)nc3c(F)c(-c4cccc5cccc(F)c45)ncc23)CC1
(b) OCC1CCCCN(c2nc(OCC34CCCN3CCC4)nc3c(F)c(-c4cccc5cccc(F)c45)ncc23)C1 (stereo not drawn)
Hi there, can you help? I need to know whether a or b has lower measured IC50. Pick one; state its label. a

(a) NC(=O)N1CC(Nc2nc(OCC34CCCN3CCC4)nc3c(F)c(-c4cccc5cccc(Cl)c45)ncc23)C1
(b) Fc1c(-c2cccc3cccc(F)c23)ncc2c(NCc3nnc4cccnn34)nc(OCC34CCCN3CCC4)nc12
Form: Entry with minimum IC50 (choose one): a / b Refer to your chosen item by its label in the answer. a

---

# Test system: pERK in H460 cells
# testProtocol: Inhibition of KRas phosphorylation of ERK (Cisbio HTRF pERK assay)
# conditionContext: Homo sapiens, NCI-H460, read-out: Inhibition (HTRF IC50) of KRas-mediated Phosphorylation of ERK, H460
propertyLabel: IC50 (nM)

Please review the following examples before continuing.
# molecule, unitOfMeasurement, endpointResult
data = [
    ("Oc1cc(-c2ncc3c(N4CC5CC(O)C(C5)C4)nc(OC[C@@]45CCCN4C[C@H](F)C5)nc3c2F)c2c(Cl)c(F)ccc2c1 (stereo partly drawn) [Example 421]", "nM", 73),
    ("C#Cc1c(F)ccc2cc(O)cc(-c3ncc4c(N5CCC[C@@](C)(O)C5)nc(OC[C@@]56CCCN5C[C@H](F)C6)nc4c3F)c12 [Example 13]", "nM", 27),
    ("CCc1c(F)ccc2cc(O)cc(-c3ncc4c(N5CCCCCC5)nc(OC[C@@]56CCCN5C[C@H](F)C6)nc4c3F)c12 [Example 317]", "nM", 287),
    ("CCc1c(F)ccc2cc(O)cc(-c3ncc4c(N5CCC[C@@](C)(O)C5)nc(OC[C@]56CCCN5[C@H](CO)CC6)nc4c3F)c12 [Example 302]", "nM", 120),
    ("CCc1c(F)ccc2cc(O)cc(-c3ncc4c(N5CCCCC(O)C5)nc(OC[C@@]56CCCN5C[C@H](F)C6)nc4c3F)c12 (stereo partly drawn) [Example 347]", "nM", 127),
    ("CCc1c(F)ccc2cc(O)cc(-c3ncc4c(N5CCCC6(CCS(=O)(=O)C6)C5)nc(OC[C@@]56CCCN5C[C@H](F)C6)nc4c3F)c12 (stereo partly drawn) [Example 507]", "nM", 179),
    ("C#Cc1c(F)ccc2cc(O)cc(-c3ncc4c(NCc5c[nH]c6ncccc56)nc(OC[C@@]56CCCN5C[C@H](F)C6)nc4c3F)c12 [Example 150]", "nM", 167),
    ("CCc1c(F)ccc2cc(O)cc(-c3ncc4c(N5CCCn6nc(C(=O)N(C)C)c(Cl)c6C5)nc(OC[C@@]56CCCN5C[C@H](F)C6)nc4c3F)c12 [Example 504]", "nM", 53),
]

(I) CCc1c(F)ccc2cc(O)cc(-c3ncc4c(N5CCCC(C#N)CC5)nc(OC[C@@]56CCCN5C[C@H](F)C6)nc4c3F)c12 (stereo partly drawn) [Example 173]
(II) C#Cc1c(F)ccc2cc(O)cc(-c3ncc4c(N5CCCn6nc(N)cc6C5)nc(OC[C@@]56CCCN5C[C@H](F)C6)nc4c3F)c12 [Example 394]
Lab note: check whether I or II shows the higher recorded IC50. // return label of chosen record II
(II: 1070 nM, I: 176 nM)

(a) CCc1c(F)ccc2cc(O)cc(-c3ncc4c(N5CCC[C@]6(C5)NC(=O)NC6=O)nc(OC[C@@]56CCCN5C[C@H](F)C6)nc4c3F)c12 [Example 307]
(b) CCc1cccc2cc(O)c(F)c(-c3ncc4c(N5CCC[C@@](C)(O)C5)nc(OC[C@@]56CCCN5C[C@H](F)C6)nc4c3F)c12 [Example 472]
Which is greater in IC50, the first item a or the second item b ? Refer to your chosen item by its label in the answer. b

---

# System: pERK in MKN1 cells
# testProtocol: Inhibition of KRas phosphorylation of ERK (Cisbio HTRF pERK assay)
# conditionContext: Homo sapiens, MKN-1, 3 h, read-out: Inhibition (HTRF IC50) of KRas-mediated Phosphorylation of ERK, MKN1
pIC50: −log10 of the molar value.
propertyLabel: pIC50

Illustrative cases are given below, each with its answer.
# compound, pIC50
records = [
    ("CCc1c(F)ccc2cc(O)cc(-c3ncc4c(N5CCCSCC5)nc(OC[C@@]56CCCN5C[C@H](F)C6)nc4c3F)c12 [Example 342]", 8.40),
    ("Oc1cc(-c2ncc3c(N4CCCC5(CC(O)C5)C4)nc(OC[C@@]45CCCN4C[C@H](F)C5)nc3c2F)c2c(Cl)c(F)ccc2c1 (stereo partly drawn) [Example 425]", 8.30),
    ("CCc1c(F)ccc2cc(O)cc(-c3ncc4c(N5CCOCC6(C5)NC(=O)NC6=O)nc(OC[C@@]56CCCN5C[C@H](F)C6)nc4c3F)c12 (stereo partly drawn) [Example 337]", 7.31),
    ("CCc1c(F)ccc2cc(O)cc(-c3ncc4c(N5CCC[C@@](C)(O)C5)nc(OCC5(CN6CCN(C)CC6)CC5)nc4c3F)c12 [Example 336]", 8.40),
]

(A) CCc1c(F)ccc2cc(O)cc(-c3ncc4c(N5CCC[C@@H](O)[C@@H]5C)nc(OC[C@@]56CCCN5C[C@H](F)C6)nc4c3F)c12 [Example 185]
(B) C#Cc1c(F)ccc2cc(O)cc(-c3ncc4c(N5CC6C(=O)NC(=O)C6C5)nc(OC[C@@]56CCCN5C[C@H](F)C6)nc4c3F)c12 (stereo partly drawn) [Example 389]
(C) CCc1c(F)ccc2cc(O)cc(-c3ncc4c(NCCCc5cccnc5)nc(OC[C@@]56CCCN5C[C@H](F)C6)nc4c3F)c12 [Example 198]
Exam item: list the entries in increasing order of pIC50. API: response body holds the labels in the requested order. C, B, A

(1) CCc1c(F)ccc2cc(O)cc(-c3ncc4c(N5CCC[C@]6(C5)NC(=O)NC6=O)nc(OC[C@@]56CCCN5C[C@H](F)C6)nc4c3F)c12 [Example 307]
(2) CCc1c(F)ccc2cc(O)cc(-c3ncc4c(N5CCCC6(CSC6)C5)nc(OC[C@@]56CCCN5C[C@H](F)C6)nc4c3F)c12 [Example 365]
Sort 1 and 2 by pIC50 descending and give the first. Give the chosen item's label as your response. 1
(1: 8.30, 2: 8.00)

(a) CCc1c(F)ccc2cc(O)cc(-c3ncc4c(N5CCC[C@@](C)(O)C5)nc(OC[C@]56CCCN5[C@@H](CO)CC6)nc4c3F)c12 [Example 303]
(b) CCc1c(F)ccc2cc(O)cc(-c3ncc4c(N5CCCC(N6CCCS6(=O)=O)C5)nc(OC[C@@]56CCCN5C[C@H](F)C6)nc4c3F)c12 (stereo partly drawn) [Example 348]
(c) CCc1c(F)ccc2cc(O)cc(-c3ncc4c(N5C[C@H](O)C[C@H](F)C5)nc(OC[C@@]56CCCN5C[C@H](F)C6)nc4c3F)c12 [Example 192]
Reorder: pIC50, max to min. Order the labels as requested and give them as your answer. c, b, a
(c: 8.40, b: 8.15, a: 6.45)
